Just for reference, PubChem BioAssay (NCI) is where these values come from.

- System: OVCAR-3 ovarian
- ASSAY_REMARKS: NCI tumour cell line growth inhibition, 48 h
// Not fulfilled strictly below 30 µM in TGI; Fulfilled otherwise

| COMPOUND | CLASSIFICATION |
| --- | --- |
| COC(=O)CCCc1nc2ccccc2nc1N=Nc1ccccc1 | Fulfilled |
| COc1cc(C=NCC(=O)CSC(c2ccccc2)c2ccccc2)ccc1O | Not fulfilled |
| CCOC(=O)c1cnc2n(c1=O)[C@H]1CCCC[C@@H]1N2 | Fulfilled |
| COc1ccc(C2C3=C(COC3=O)Oc3cc4c(cc32)OCO4)cc1OC (configuration not stated) | Not fulfilled |
| COc1cc(N)c(Cl)cc1C(=O)N[C@@H]1CCN(CCCOc2ccc(F)cc2)C[C@@H]1OC | Fulfilled |
| O=C(Cc1nc2ccccc2s1)C(=O)Nc1cccc(C(F)(F)F)c1 | Fulfilled |
| C[C@]12CC[C@H]3[C@@H](CC=C4C[C@@H](O)CC[C@@]43C)[C@@H]1C/C(=C\c1ccc([N+](=O)[O-])cc1)[C@@H]2O | Fulfilled |
| O=C1OC2(CCCCC2)C(Oc2ccc(Cl)cc2)=C1F | Fulfilled |
| CN1CCC(O)(OC(=O)C(c2ccccc2)C2(O)CCCC2)CC1 (configuration not stated) | Fulfilled |
| O=C1C=C(NCCc2ccccc2)c2ccccc2C1=O | Not fulfilled |
| C[C@]12CCC3c4ccc(O)cc4CCC3C1CC[C@@H]2NC(=O)/C=C/c1ccc(O)c(O)c1 (some centres not stated) | Fulfilled |
| O=C(NC1=C(Cl)C(=O)c2ccccc2C1=O)C(=O)c1c(O)c2ccccc2oc1=O | Not fulfilled |
| Cc1noc(-c2ccc(C(=O)O)[nH]2)c1Br | Fulfilled |
| CC(C)(C)N=C1C(=O)C2(C)CCC1C2(C)C (configuration not stated) | Fulfilled |
| CC(=O)c1nc(-c2ccc(C[C@@H](CNC(=O)CN(C)C)NC(=O)c3ccc(OC(C)C)c(Cl)c3)cc2)cn1C | Not fulfilled |
| CC(C)(C)c1cc(C(C)(C)C)c(SC2OC(CO)C(O)C(O)C2O)c(O)c1O (configuration not stated) | Not fulfilled |
